src = ChEMBL document CHEMBL1201862

Tested on: OVCAR-8
method: NCI tumour cell line growth inhibition, 48 h
The source made the active and inactive calls. Rule as the data show it: active = GI50 up to about 1.1 µM and inactive = higher.
quantity.measured: GI50

Solved entries (count: 3):
{"item.smiles": "CCOC(=O)c1c(SCCCN2CCCCC2)n(-c2ccccc2)c(=S)n(-c2ccccc2)c1=O", "quantity.measured": "GI50", "result": "19.3 µM (inactive)"}
{"item.smiles": "COC(=O)c1c2c(cc3c1CC1(Cc4cc5c(cc4C1)CCC5)C3)CCC2", "quantity.measured": "GI50", "result": "> 100 µM (inactive)"}
{"item.smiles": "CC(=O)OC1=C(c2ccccc2)S(=O)(=O)c2ccccc21", "quantity.measured": "GI50", "result": "> 100 µM (inactive)"}

Please report the recorded GI50 for `N=C(N)c1ccc(/N=N/c2c(O)ccc3cc(O)ccc23)cc1` .
> 100 µM (inactive)

Another molecule: `CCN(CC)c1c(C(C)(C)C)c(=O)n2ccsc2c1OC(C)=O`
15 µM (inactive)

Another molecule: `CCCCCCCCC(=O)CCCCCCCCC(=O)O`
17.3 µM (inactive)

* * *

Test system: RXF 393
method: NCI tumour cell line growth inhibition, 48 h
Activity calls are given as the source filed them. Rule as the data show it: active = GI50 up to about 1.1 µM and inactive = higher.
Please answer using one outcome listed in T for active, F for inactive

{"compound": "Cc1ncc([N+](=O)[O-])n1CCN=[N+]=[N-]", "label.class": "F"}
{"compound": "Cc1[nH]c(=O)nc(S)c1C(=O)NC1C2CCCCC2NC2CCCCC21 (configuration not stated)", "label.class": "F"}
{"compound": "CC(C)CC(C#CCCOC(=O)c1ccccc1)OC(=O)c1ccccc1 (configuration not stated)", "label.class": "F"}
{"compound": "CCN(CC)CCNc1c(OC)cc(C)c2sc3ccccc3c(=O)c12", "label.class": "F"}
{"compound": "O=C(O)c1ccccc1Cc1ccco1", "label.class": "F"}

// outcome(item) with item = `c1ccc2c(c1)CCc1[nH]c3c(c1-2)-c1ccccc1CC3`
F

Another compound: `C=CCOCCCC(=O)C(=[N+]=[N-])C(=O)OC`
F

Another compound: COc1ccc(C(=O)O/N=C2/CCCCC2CN(C)C)cc1 (configuration not stated)
F

* * *

Tested on: OVCAR-4
method: NCI tumour cell line growth inhibition, 48 h
Activity calls are given as the source filed them. No stated cut-off is given here; in the data, active = GI50 up to about 1.1 µM and inactive = higher.
quantity.measured: GI50

Solved entries (count: 2):
{"molecule": "CCOP(=O)(OCC)[C@]12C[C@@H](C)C=C[C@H]1COC2=O", "result": "> 100 µM (inactive)"}
{"molecule": "CCC(C)C(NC(=O)c1c2ccccc2nc2ccccc12)C(=O)O (stereo not drawn)", "result": "> 100 µM (inactive)"}

Please report the recorded GI50 for CC1(C)CCC[C@@]2(C)C1CC[C@@]1(CO1)[C@@H]2/C=C\C(C=O)CC=O (stereo partly drawn) .
> 100 µM (inactive)

* * *

Property: GI50; scope: individual compounds
System: RXF 631
method: NCI tumour cell line growth inhibition, 48 h
Activity calls are given as the source filed them. No stated cut-off is given here; in the data, active = GI50 up to about 1.1 µM and inactive = higher.

{"compound": "N#CC(c1ccccc1)c1nc2ccc(N)cc2[n+]([O-])c1C(C#N)c1ccccc1 (configuration not stated)", "GI50": "86.9 µM (inactive)"}
{"compound": "CC1CC2(S(=O)(=O)c3ccccc3)ON1CC2S(=O)(=O)c1ccccc1 (configuration not stated)", "GI50": "> 100 µM (inactive)"}
{"compound": "CC1=C(C(=O)CC(=O)C(=O)Nc2cc(C)ccc2C)Sc2ccccc2N1", "GI50": "> 100 µM (inactive)"}

Please report the recorded GI50 for `COc1ccc2nc(C(=O)c3ccccc3)c(C)cc2c1` .
8.18 µM (inactive)
